Cited source: patent US10723723B2

Target System: hROMK (Homo sapiens (Human), UniProt P48048)
Sequence (P48048 whole entry): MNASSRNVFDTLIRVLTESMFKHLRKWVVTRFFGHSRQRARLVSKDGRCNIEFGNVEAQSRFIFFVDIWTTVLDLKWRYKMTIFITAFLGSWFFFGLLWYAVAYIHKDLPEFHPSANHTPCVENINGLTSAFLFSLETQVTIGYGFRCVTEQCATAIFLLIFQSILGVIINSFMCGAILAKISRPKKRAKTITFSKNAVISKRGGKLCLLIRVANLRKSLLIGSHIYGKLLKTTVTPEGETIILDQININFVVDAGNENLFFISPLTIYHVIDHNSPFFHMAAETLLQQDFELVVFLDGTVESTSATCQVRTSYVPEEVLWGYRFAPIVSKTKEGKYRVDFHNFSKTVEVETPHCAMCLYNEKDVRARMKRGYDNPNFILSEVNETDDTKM
Protocol Notes: ROMK Manual Patch Clamp Assay
Condition Label: whole-cell manual patch clamp, hROMK current; read-out: ROMK EP IC50
Parameter Measured: pIC50
# pIC50: negative log10 of molar concentration; output just the value

# count of solved cases: 2
- Compound: "Cc1cn(-c2ccc(CNC[C@H](O)c3ccc4c(c3C)COC4=O)cn2)cn1 [Example 108]"
  Parameter Measured: "pIC50"
  Test Result: 7.72
- Compound: "Cc1c([C@@H](O)CNCc2cnc(-n3c(C)nnc3C)nc2)ccc2c1COC2=O [Example 47]"
  Parameter Measured: "pIC50"
  Test Result: 6.38

Now for a further compound.
Query: Given Cc1c(C(O)CNCc2ccc(-c3ccc4oc(=O)n(C)c4c3)nc2)ccc2c1COC2=O (single isomer, unassigned) [Example 23-I] , respond with its pIC50.
Response: 7.82
